Numbers sourced from the RNAGym collection of RNA variant scans (doi:10.7554/elife.90254).

Listed below: self-cleavage values for each entry.
B1: LINE1-full (parent)
chain: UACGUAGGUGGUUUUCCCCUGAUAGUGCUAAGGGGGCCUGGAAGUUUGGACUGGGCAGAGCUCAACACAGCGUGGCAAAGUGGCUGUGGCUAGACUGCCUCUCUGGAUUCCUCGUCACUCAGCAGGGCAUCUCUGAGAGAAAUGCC

Variants of: B1
Assay: self-cleavage, relative activity (ratio to wild type); higher = more cleavage; in vitro, sequencing; the parent is a self-cleaving ribozyme
Give a plain numeric answer without units written out.

For orientation, consider the following solved cases.
| SEQUENCE_CHANGE | REPORTED |
| --- | --- |
| U47G U102A | 1.34 |
| G4U U81C | 0.2 |
| U29C C101G | 0.89 |

Shift focus to the following entry.
Query: Consider the variant A117U A121G and give its recorded self-cleavage.
Result: 1.81
